# Assay Remarks: HILIC, Waters Atlantis Premier BEH Z-HILIC, 100 × 2.1 mm, 1.7 µm, 40 °C, 0.17 mL/min, estimated dead time 1.3 min; A: water + 20 mM ammonium carbonate + 5 µM medronic acid; B: 10% water + 90% acetonitrile + 2 mM ammonium carbonate + 0.5 µM medronic acid; gradient (min/%B) 0/100 18/60 18.1/20 21.5/20 22/100 23.5/100 25.5/100
# Setup Conditions: stereoisomer not certain
Measured Quantity: LC retention time (min)

[[record]]
compound = "NC(=O)c1ccc[n+](C2OC(COP(=O)(O)OP(=O)(O)OCC3OC(n4cnc5c(N)ncnc54)C(OP(=O)(O)O)C3O)C(O)C2O)c1 (stereo not given)"
measured_quantity = "LC retention time"
recorded_measurement = 13.4

[[record]]
compound = "CCC(=O)OC(CC(=O)[O-])C[N+](C)(C)C (stereo not given)"
measured_quantity = "LC retention time"
recorded_measurement = 6.63

[[record]]
compound = "OCC1OC(O)C(O)C(O)C1O (stereo not given) [Hexose]"
measured_quantity = "LC retention time"
recorded_measurement = 7.55

[[record]]
compound = "C=C(OP(=O)(O)O)C(=O)O"
measured_quantity = "LC retention time"
recorded_measurement = 13.8

[[record]]
compound = "CC(=O)NC1C(OP(=O)(O)OP(=O)(O)OCC2OC(n3ccc(=O)[nH]c3=O)C(O)C2O)OC(CO)C(O)C1O (stereo not given)"
measured_quantity = "LC retention time"
recorded_measurement = 9.68


A. O=C1CC(C(=O)O)NC(=O)N1 (stereo not given) [dihydroorotic acid]
B. NC(=O)C1=CN(C2OC(COP(=O)(O)OP(=O)(O)OCC3OC(n4cnc5c(N)ncnc54)C(O)C3O)C(O)C2O)C=CC1 (stereo not given)
Lab log: flag the item ( A or B ) with the smaller LC retention time figure. The response must carry the label of the picked entry.
A
(A: 4.87 min, B: 8.45 min)

I. O=C(O)CCCCC1SCC2NC(=O)NC21 (stereo not given)
II. Nc1nc2c(ncn2C2OC(COP(=O)(O)OP(=O)(O)OP(=O)(O)O)C(O)C2O)c(=O)[nH]1 (stereo not given)
Could you tell me which of these two has the smaller LC retention time figure? First: I Second: II Please indicate the selected item by its label.
I

Hello, the source for this data is the RepoRT retention time repository, in case you need it.
